Recorded values, source patent US20250243194A1.

tested on: human Adenosine A1 receptor (Homo sapiens (Human))
Sequence (P30542 whole entry): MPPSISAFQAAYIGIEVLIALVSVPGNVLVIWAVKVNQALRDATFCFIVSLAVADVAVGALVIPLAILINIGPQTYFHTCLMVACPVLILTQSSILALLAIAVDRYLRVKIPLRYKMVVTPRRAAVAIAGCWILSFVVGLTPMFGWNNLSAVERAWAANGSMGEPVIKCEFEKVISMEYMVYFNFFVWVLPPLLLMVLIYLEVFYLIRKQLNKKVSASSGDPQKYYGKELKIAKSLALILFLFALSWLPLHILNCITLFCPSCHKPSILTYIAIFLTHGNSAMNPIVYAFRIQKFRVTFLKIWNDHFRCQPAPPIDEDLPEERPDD
protocol notes: Adenosine receptor TR-FRET binding assay (A1)
condition: inhibition of binding of 100 nM CA200645; CHO cell membranes; Ki from IC50 by Cheng and Prusoff
Please respond with Condition met when measured Ki is strictly beneath 10 nM, and with Condition not met in all other cases.

Is Ki strictly under 10 nM for the entry Cc1cc(-c2sc(NC(=O)N3CC4(COC4)C3)nc2-c2cccc(C#N)c2)c2cn[nH]c2n1 [Example 2.5] ? Condition not met

Is Ki strictly under 10 nM for the entry Cc1cc(-c2sc(NC(=O)N3CC4(COC4)C3)nc2-c2cccc(C#N)c2)cn2ccnc12 [Example 29] ? Condition met

Is Ki strictly under 10 nM for the entry Cc1ncnc2ccc(-c3sc(NC(=O)N4CCNCC4CC4CC4)nc3-c3cccc(C#N)c3)cc12 (centres unmarked) [Example 2.1] ? Condition not met

Is Ki strictly under 10 nM for the entry Cn1cnc2ccc(-c3sc(NC(=O)N4CC5(COC5)C4)nc3-c3cccc(C#N)c3)cc21 [Example 25] ? Condition met

Is Ki strictly under 10 nM for the entry Cc1cc(-c2sc(NC(=O)N3CC4(COC4)C3)nc2-c2cccc(C#N)c2)cnn1 [Example 31] ? Condition not met

Is Ki strictly under 10 nM for the entry Cc1cc(-c2sc(NC(=O)N3CC4(COC4)C3)nc2-c2cccc(C#N)c2)cnc1-n1nccn1 [Example 32] ? Condition not met

Is Ki strictly under 10 nM for the entry Cc1nc(C)c(-c2sc(NC(=O)N3CC4(COC4)C3)nc2-c2cccc(C#N)c2)o1 [Example 15] ? Condition not met

Is Ki strictly under 10 nM for the entry Cc1ncnc2ccc(-c3sc(NC(=O)N4CCC(N5CCN(C)CC5)CC4)nc3-c3cccc(C#N)c3)cc12 [Example 7.12] ? Condition not met

====

Field: Ki. Provide a value for each of the compounds that follow.
# answer = value followed by unit

Specify Ki for N#Cc1cccc(-c2nc(NC(=O)N3CC4(COC4)C3)sc2-c2c[nH]c3ncccc23)c1 , system human Adenosine A2b receptor (Homo sapiens (Human), UniProt P29275). 0.8 nM

Specify Ki for N#Cc1cccc(-c2nc(NC(=O)N3CC4(COC4)C3)sc2-c2ccnc3[nH]ccc23)c1 , system human Adenosine A2b receptor (Homo sapiens (Human), UniProt P29275). 0.5 nM

Specify Ki for Cc1ncnc2ccc(-c3sc(NC(=O)N4CC5(COCCN5)C4)nc3-c3cccc(C#N)c3)cc12 , system human Adenosine A2b receptor (Homo sapiens (Human), UniProt P29275). 3 nM

Specify Ki for N#Cc1cccc(-c2nc(NC(=O)N3CC4(COC4)C3)sc2-c2ccc3ncoc3c2)c1 , system human Adenosine A2b receptor (Homo sapiens (Human), UniProt P29275). 1.6 nM

====

tested on: human Adenosine A1 receptor (Homo sapiens (Human))
protocol notes: Adenosine receptor TR-FRET binding assay (A1)
condition: inhibition of binding of 100 nM CA200645; CHO cell membranes; Ki from IC50 by Cheng and Prusoff
Field: Ki. Provide a value for each of the compounds that follow.
Supply the numeric figure in nM, leaving out any unit text.

Specify Ki for N#Cc1cccc(-c2nc(NC(=O)N3CC4(COC4)C3)sc2-c2ccnc3[nH]ccc23)c1 , system human Adenosine A1 receptor (Homo sapiens (Human)). 1

Specify Ki for Cc1cc(-c2sc(NC(=O)N3CC4(COC4)C3)nc2-c2cccc(C#N)c2)cn2c(C)cnc12 , system human Adenosine A1 receptor (Homo sapiens (Human)). 1

Specify Ki for Cc1nc(C)c2cc(-c3sc(NC(=O)N4CC5(COC5)C4)nc3-c3cccc(C#N)c3)ccc2n1 , system human Adenosine A1 receptor (Homo sapiens (Human)). 70

Specify Ki for Cc1cc(-c2sc(NC(=O)N3CC4(COC4)C3)nc2-c2cccc(C#N)c2)cc2[nH]nnc12 , system human Adenosine A1 receptor (Homo sapiens (Human)). 1

Specify Ki for Cc1ncnc2ccc(-c3sc(NC(=O)N4CCC(C)(C#N)C4)nc3-c3cccc(C#N)c3)cc12 (stereo not drawn) , system human Adenosine A1 receptor (Homo sapiens (Human)). 3

Specify Ki for Cc1ncnc2ccc(-c3sc(NC(=O)N4CC5(CN(C)C5)C4)nc3-c3cccc(C#N)c3)cc12 , system human Adenosine A1 receptor (Homo sapiens (Human)). 345

====

human Adenosine A2b receptor (Homo sapiens (Human), UniProt P29275) Ki data
Sequence (P29275 whole entry): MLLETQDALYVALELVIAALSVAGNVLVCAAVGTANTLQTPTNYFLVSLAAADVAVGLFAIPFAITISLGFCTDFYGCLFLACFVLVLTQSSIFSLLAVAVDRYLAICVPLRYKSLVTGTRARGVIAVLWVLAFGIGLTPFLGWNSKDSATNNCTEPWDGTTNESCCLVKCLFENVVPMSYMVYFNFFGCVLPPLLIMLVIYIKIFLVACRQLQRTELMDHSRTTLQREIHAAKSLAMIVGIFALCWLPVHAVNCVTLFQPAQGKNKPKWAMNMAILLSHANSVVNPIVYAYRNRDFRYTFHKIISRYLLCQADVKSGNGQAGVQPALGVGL
Supply the numeric figure in nM, leaving out any unit text.

# return recorded Ki for input Cc1ncnc2ccc(-c3sc(NC(=O)N4CCC5(CNCCO5)C4)nc3-c3cccc(C#N)c3)cc12 (stereo not shown) 1.9

# return recorded Ki for input Cc1ncnc2ccc(-c3sc(NC(=O)N4CCC5(CCC(=O)N5)CC4)nc3-c3cccc(C#N)c3)cc12 1.1

# return recorded Ki for input Cc1ncnc2ccc(-c3sc(NC(=O)N4CC5(C4)CC(C)(O)C5)nc3-c3cccc(C#N)c3)cc12 1.3

# return recorded Ki for input Cc1ncnc2ccc(-c3sc(NC(=O)N4CC[C@H](C(C)(C)O)C4)nc3-c3cccc(C#N)c3)cc12 1.7

====

human Adenosine A3 receptor (Homo sapiens (Human), UniProt P0DMS8) pKi data
Sequence (P0DMS8 whole entry): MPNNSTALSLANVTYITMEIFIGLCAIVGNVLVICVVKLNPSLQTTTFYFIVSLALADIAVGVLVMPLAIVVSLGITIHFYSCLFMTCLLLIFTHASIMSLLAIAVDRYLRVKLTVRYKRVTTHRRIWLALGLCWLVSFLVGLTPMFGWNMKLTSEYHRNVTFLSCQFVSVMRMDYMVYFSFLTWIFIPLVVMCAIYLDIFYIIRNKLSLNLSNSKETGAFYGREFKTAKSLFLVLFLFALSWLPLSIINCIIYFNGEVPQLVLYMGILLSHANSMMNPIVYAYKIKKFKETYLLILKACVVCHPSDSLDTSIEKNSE
Note on pKi: it is the negative log10 of concentration, concentration in mol/L.

# return recorded pKi for input N#Cc1cccc(-c2nc(NC(=O)N3CC4(COC4)C3)sc2-c2ccc3nccn3c2)c1 [Example 26] 6.04

# return recorded pKi for input Cc1cc(-c2sc(NC(=O)N3CC4(COC4)C3)nc2-c2cccc(C#N)c2)cc2cn[nH]c12 [Example 27] 6.04

# return recorded pKi for input Cc1cc(-c2sc(NC(=O)N3CC4(COC4)C3)nc2-c2cccc(C#N)c2)cc2[nH]ncc12 [Example 2.2] 6.09

# return recorded pKi for input Cc1cc(-c2sc(NC(=O)N3CC4(COC4)C3)nc2-c2cccc(C#N)c2)cc2cn(C)nc12 [Example 28] 6.20

====

Field: Ki. Provide a value for each of the compounds that follow.
Supply the numeric figure in nM, leaving out any unit text.

Specify Ki for Cn1cnc2ccc(-c3sc(NC(=O)N4CC5(COC5)C4)nc3-c3cccc(C#N)c3)cc21 [Example 25] , system human Adenosine A3 receptor (Homo sapiens (Human)). 1730

Specify Ki for Cc1cc(-c2sc(NC(=O)N3CC4(COC4)C3)nc2-c2cccc(C#N)c2)cnn1 [Example 31] , system human Adenosine A3 receptor (Homo sapiens (Human)). 1180

Specify Ki for Cc1cc(-c2sc(NC(=O)N3CC4(COC4)C3)nc2-c2cccc(C#N)c2)cc2[nH]nnc12 [Example 2.3] , system human Adenosine A3 receptor (Homo sapiens (Human)). 466

====

human Adenosine A2b receptor (Homo sapiens (Human)) Ki data
Supply the numeric figure in nM, leaving out any unit text.

# return recorded Ki for input Cc1ncnc2ccc(-c3sc(NC(=O)N4CCC(N5CCNCC5)CC4)nc3-c3cccc(C#N)c3)cc12 7.7

# return recorded Ki for input Cc1ncnc2ccc(-c3sc(NC(=O)N4CCC(OCCN5CCCC5)C4)nc3-c3cccc(C#N)c3)cc12 (stereo not drawn) 1.9

# return recorded Ki for input Cc1ncnc2ccc(-c3sc(NC(=O)N4CCC5(CC4)CNC(=O)C5)nc3-c3cccc(C#N)c3)cc12 1.9

====

tested on: human Adenosine A2a receptor (Homo sapiens (Human))
Sequence (P29274 whole entry): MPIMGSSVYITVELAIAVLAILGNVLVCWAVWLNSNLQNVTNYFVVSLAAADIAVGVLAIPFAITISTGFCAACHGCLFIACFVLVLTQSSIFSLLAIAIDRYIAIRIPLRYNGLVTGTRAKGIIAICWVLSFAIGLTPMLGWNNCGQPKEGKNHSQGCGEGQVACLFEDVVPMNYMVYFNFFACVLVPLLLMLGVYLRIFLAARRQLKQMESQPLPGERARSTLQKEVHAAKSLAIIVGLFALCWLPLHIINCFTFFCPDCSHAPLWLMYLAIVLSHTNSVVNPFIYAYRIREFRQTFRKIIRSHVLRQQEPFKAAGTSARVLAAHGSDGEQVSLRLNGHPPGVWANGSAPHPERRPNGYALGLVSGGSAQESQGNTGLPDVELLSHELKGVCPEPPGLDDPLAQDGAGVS
protocol notes: Adenosine receptor TR-FRET binding assay (A2a)
condition: inhibition of binding of 100 nM CA200645; CHO cell membranes; Ki from IC50 by Cheng and Prusoff
reported endpoint: log10(Ki) (log10 of the value in nM)
Lab note - Ki converted to log10 from values in nM.

Specify log10(Ki) for Cc1cc(-c2sc(NC(=O)N3CC4(COC4)C3)nc2-c2cccc(C#N)c2)c2cn[nH]c2n1 , system human Adenosine A2a receptor (Homo sapiens (Human)). 0.52

Specify log10(Ki) for Cc1ncnc2ccc(-c3sc(NC(=O)N4CC5(CN(C)C5)C4)nc3-c3cccc(C#N)c3)cc12 , system human Adenosine A2a receptor (Homo sapiens (Human)). 0.26

Specify log10(Ki) for Cc1cc(-c2sc(NC(=O)N3CC4(COC4)C3)nc2-c2cccc(C#N)c2)cc2[nH]ncc12 , system human Adenosine A2a receptor (Homo sapiens (Human)). 0.43

Specify log10(Ki) for Cc1nc(C)c(-c2sc(NC(=O)N3CCC(C)(C#N)CC3)nc2-c2cccc(C#N)c2)o1 , system human Adenosine A2a receptor (Homo sapiens (Human)). -0.38

Specify log10(Ki) for N#Cc1cccc(-c2nc(NC(=O)N3CC4(COC4)C3)sc2-c2c[nH]c3ncccc23)c1 , system human Adenosine A2a receptor (Homo sapiens (Human)). 0.49

Specify log10(Ki) for Cc1ncnc2ccc(-c3sc(NC(=O)N4CCC5(CCC(=O)N5)CC4)nc3-c3cccc(C#N)c3)cc12 , system human Adenosine A2a receptor (Homo sapiens (Human)). -0.89

Specify log10(Ki) for Cc1ncnc2ccc(-c3sc(NC(=O)N4CCN(C(C)C#N)CC4)nc3-c3cccc(C#N)c3)cc12 (stereo not drawn) , system human Adenosine A2a receptor (Homo sapiens (Human)). -0.68

Specify log10(Ki) for Cc1ncnc2ccc(-c3sc(NC(=O)N4CCC(N5CCNCC5)CC4)nc3-c3cccc(C#N)c3)cc12 , system human Adenosine A2a receptor (Homo sapiens (Human)). 0.35

Specify log10(Ki) for Cc1ncnc2ccc(-c3sc(NC(=O)N4CCN(CCO)CC4)nc3-c3cccc(C#N)c3)cc12 , system human Adenosine A2a receptor (Homo sapiens (Human)). -0.32

Specify log10(Ki) for Cc1ncnc2ccc(-c3sc(NC(=O)N4CC5CCCN(C)C5C4)nc3-c3cccc(C#N)c3)cc12 (stereo not drawn) , system human Adenosine A2a receptor (Homo sapiens (Human)). -0.27

Specify log10(Ki) for Cc1ncnc2ccc(-c3sc(NC(=O)N4CCC5(CC4)CNCCO5)nc3-c3cccc(C#N)c3)cc12 , system human Adenosine A2a receptor (Homo sapiens (Human)). -0.82

Specify log10(Ki) for Cc1ncnc2ccc(-c3sc(NC(=O)N4CC[C@H](C(C)(C)O)C4)nc3-c3cccc(C#N)c3)cc12 , system human Adenosine A2a receptor (Homo sapiens (Human)). -0.77

Specify log10(Ki) for Cc1ncnc2ccc(-c3sc(NC(=O)N4CCC5(CNCCO5)C4)nc3-c3cccc(C#N)c3)cc12 (stereo not drawn) , system human Adenosine A2a receptor (Homo sapiens (Human)). -0.72

Specify log10(Ki) for Cc1ncnc2ccc(-c3sc(NC(=O)N4CCC(OCCN5CCCC5)C4)nc3-c3cccc(C#N)c3)cc12 (stereo not drawn) , system human Adenosine A2a receptor (Homo sapiens (Human)). -1.00

Specify log10(Ki) for Cc1ncnc2ccc(-c3sc(NC(=O)N4CC[C@](C)(C#N)C4)nc3-c3cccc(C#N)c3)cc12 , system human Adenosine A2a receptor (Homo sapiens (Human)). -0.92

Specify log10(Ki) for Cc1ncnc2ccc(-c3sc(NC(=O)N4CC5(COC5)C4)nc3-c3cccc(C#N)c3)cc12 , system human Adenosine A2a receptor (Homo sapiens (Human)). -1.05

Specify log10(Ki) for Cc1cc(-c2sc(NC(=O)N3CC4(COC4)C3)nc2-c2cccc(C#N)c2)cn2c(C)cnc12 , system human Adenosine A2a receptor (Homo sapiens (Human)). -0.96

Specify log10(Ki) for Cc1ncnc2ccc(-c3sc(NC(=O)N4CC5(CCO5)C4)nc3-c3cccc(C#N)c3)cc12 , system human Adenosine A2a receptor (Homo sapiens (Human)). -1.10

Specify log10(Ki) for Cc1ncnc2ccc(-c3sc(NC(=O)N4CCC(C)(C#N)C4)nc3-c3cccc(C#N)c3)cc12 (stereo not drawn) , system human Adenosine A2a receptor (Homo sapiens (Human)). -0.92

Specify log10(Ki) for Cc1ncnc2ccc(-c3sc(NC(=O)N4CCNCC4CC4CC4)nc3-c3cccc(C#N)c3)cc12 (stereo not drawn) , system human Adenosine A2a receptor (Homo sapiens (Human)). -0.60

Specify log10(Ki) for Cc1ncnc2ccc(-c3sc(NC(=O)N4CCC5(CC4)CNC(=O)C5)nc3-c3cccc(C#N)c3)cc12 , system human Adenosine A2a receptor (Homo sapiens (Human)). -0.70
